Molecular target: Amine oxidase [flavin-containing] B (Homo sapiens, UniProt P27338)
Sequence (P27338 whole entry): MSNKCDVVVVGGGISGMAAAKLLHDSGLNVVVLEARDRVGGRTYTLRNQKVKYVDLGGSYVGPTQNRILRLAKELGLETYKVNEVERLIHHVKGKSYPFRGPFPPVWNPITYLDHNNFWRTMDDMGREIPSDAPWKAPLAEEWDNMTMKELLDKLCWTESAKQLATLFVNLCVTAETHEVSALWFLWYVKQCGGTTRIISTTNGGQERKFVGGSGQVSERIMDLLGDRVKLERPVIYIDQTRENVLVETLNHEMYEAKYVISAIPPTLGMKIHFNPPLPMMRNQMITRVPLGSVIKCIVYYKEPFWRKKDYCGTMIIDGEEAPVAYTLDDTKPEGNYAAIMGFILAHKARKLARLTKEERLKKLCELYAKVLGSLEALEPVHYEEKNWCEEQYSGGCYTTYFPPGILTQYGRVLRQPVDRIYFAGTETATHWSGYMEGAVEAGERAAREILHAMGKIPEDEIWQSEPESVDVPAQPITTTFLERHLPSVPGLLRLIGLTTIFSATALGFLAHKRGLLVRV
Experiment: Inhibition of recombinant human MAO-B expressed in insect cells using kynuramine as substrate assessed as formation of 4-hydroxyquinoline measured every 5 mins for 30 mins
pIC50: −log10 of the molar value.
Measured Property: pIC50

a: C#CCN[C@H]1c2ccccc2C[C@@H]1F
b: [2H]C([2H])(C#C)N[C@@H]1c2ccccc2C[C@H]1F
IN: Between a and b , whose measured pIC50 reads higher? Please reply using the label of the selected record.
OUT: a
(a: 7.57, b: 6.76)

---

Test: Chemical stability of the compound in PBS at pH 7.4 after 180 mins
Format: physicochemical
Conditions: read-out: Stability
Measured Property: remaining at 3 h

IN: Can you look up the measured remaining at 3 h of [2H]C([2H])(C#C)N[C@@H]1c2ccccc2C[C@H]1[18F] [[18F]FLUORORASAGILINE-D2] for me?
OUT: > 97%

---

Experiment: Drug recovery in cynomolgus monkey plasma at 168 to 174 MBq, iv by RP-HPLC analysis in presence of acetonitrile
Type: ADME, organism-based, Macaca fascicularis
Conditions: read-out: Drug recovery
Measured Property: recovery

IN: What measured recovery goes with [2H]C([2H])(C#C)N[C@@H]1c2ccccc2C[C@H]1[18F] [[18F]FLUORORASAGILINE-D2] ?
OUT: > 95%

---

Biological target: UniProtKB P21397
Sequence (P21397 whole entry): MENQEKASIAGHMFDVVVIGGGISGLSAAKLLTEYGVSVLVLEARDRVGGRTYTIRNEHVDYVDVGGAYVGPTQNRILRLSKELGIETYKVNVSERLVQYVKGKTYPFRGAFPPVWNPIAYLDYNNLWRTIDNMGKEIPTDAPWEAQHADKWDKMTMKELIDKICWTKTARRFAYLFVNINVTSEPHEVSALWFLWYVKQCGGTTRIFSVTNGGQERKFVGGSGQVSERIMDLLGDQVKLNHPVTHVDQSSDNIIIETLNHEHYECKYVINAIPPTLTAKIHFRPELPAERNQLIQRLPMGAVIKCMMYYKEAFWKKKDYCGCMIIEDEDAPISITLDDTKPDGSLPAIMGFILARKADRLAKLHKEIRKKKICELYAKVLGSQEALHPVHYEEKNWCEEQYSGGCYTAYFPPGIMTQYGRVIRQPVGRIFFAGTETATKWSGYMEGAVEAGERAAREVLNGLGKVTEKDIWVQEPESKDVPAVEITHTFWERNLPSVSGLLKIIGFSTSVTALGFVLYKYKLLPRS
Assay: Inhibition of recombinant human MAO-A expressed in insect cells using kynuramine as substrate assessed as formation of 4-hydroxyquinoline measured every 5 mins for 30 mins
Measured Property: pIC50
# pIC50 is unitless: minus log10 of the molar concentration; print number only

IN: Report pIC50 for `[2H]C([2H])(C#C)N[C@@H]1c2ccccc2C[C@H]1F` please.
OUT: 5.00

---

Assay: Stability in cynomolgus monkey plasma assessed as unchanged parent compound at 168 to 174 MBq, iv after 45 mins by RP-HPLC analysis
Format: ADME, organism-based, Macaca fascicularis
Conditions: read-out: Stability
Measured Property: remaining at 0.75 h (%)

[
  {
    "Compound": "C#CCN[C@H]1c2ccccc2C[C@@H]1[18F] [[18F]FLUORORASAGILINE]",
    "remaining at 0.75 h, %": 55
  },
  {
    "Compound": "[2H]C([2H])(C#C)N[C@@H]1c2ccccc2C[C@H]1[18F] [[18F]FLUORORASAGILINE-D2]",
    "remaining at 0.75 h, %": 50
  }
]
